Just for reference, patent US9085576B2 is where these values come from.

Assay System: Cathepsin D (Cat D) (Homo sapiens (Human), UniProt P07339)
Sequence (P07339 65-412, species assumed): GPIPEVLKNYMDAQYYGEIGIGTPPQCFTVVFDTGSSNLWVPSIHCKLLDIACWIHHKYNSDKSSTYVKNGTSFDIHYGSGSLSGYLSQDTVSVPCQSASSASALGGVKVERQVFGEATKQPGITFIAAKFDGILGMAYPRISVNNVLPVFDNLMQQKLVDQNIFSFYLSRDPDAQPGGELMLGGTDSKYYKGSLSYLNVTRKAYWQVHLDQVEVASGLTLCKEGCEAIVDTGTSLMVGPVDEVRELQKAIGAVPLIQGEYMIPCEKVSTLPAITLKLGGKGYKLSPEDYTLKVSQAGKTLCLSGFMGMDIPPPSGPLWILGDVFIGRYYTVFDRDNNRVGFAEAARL
Assay Remarks: In vitro enzymatic Cathepsin D (Cat D) FRET assay
Assay type: biochemical
Measurement Parameters: read-out: CatD IC50
pIC50: −log10 of the molar value.
Measured Metric: pIC50

# count of solved cases: 3
N#Cc1ccc(C(=O)Nc2ccc(Cl)c([C@@]3(C(F)F)N=C(N)O[C@@H]4C[C@@H]43)c2)nc1 (racemic) [Example 98] : 2.94
NC1=N[C@@](c2cc(NC(=O)c3ccc(OCc4ncco4)cn3)ccc2F)(C(F)F)[C@H]2C[C@H]2O1 [Example 173] : 3.00
NC1=N[C@](c2cc(NC(=O)c3ccc(Cl)cn3)ccc2Cl)(C(F)F)[C@@H]2C[C@@H]2O1 [Example 92] : 3.11

a. NC1=N[C@](CF)(c2cc(Nc3nccc4cc(Cl)cnc34)ccc2Cl)[C@H]2C[C@H]2O1 [Example 359]
b. Cc1c(C(=O)Nc2ccc(F)c([C@@]3(CF)N=C(N)O[C@@H]4C[C@@H]43)c2)nc2ccc(Cl)cn12 [Example 200]
Exercise: Between these two entries, a and b , state which has the higher pIC50. Respond using the label that marks the chosen record.
Key: a
(a: 3.60, b: 3.33)

* * *

Assay System: Beta Secretase enzyme (BACE) (Homo sapiens (Human))
Sequence (P56817 46-501): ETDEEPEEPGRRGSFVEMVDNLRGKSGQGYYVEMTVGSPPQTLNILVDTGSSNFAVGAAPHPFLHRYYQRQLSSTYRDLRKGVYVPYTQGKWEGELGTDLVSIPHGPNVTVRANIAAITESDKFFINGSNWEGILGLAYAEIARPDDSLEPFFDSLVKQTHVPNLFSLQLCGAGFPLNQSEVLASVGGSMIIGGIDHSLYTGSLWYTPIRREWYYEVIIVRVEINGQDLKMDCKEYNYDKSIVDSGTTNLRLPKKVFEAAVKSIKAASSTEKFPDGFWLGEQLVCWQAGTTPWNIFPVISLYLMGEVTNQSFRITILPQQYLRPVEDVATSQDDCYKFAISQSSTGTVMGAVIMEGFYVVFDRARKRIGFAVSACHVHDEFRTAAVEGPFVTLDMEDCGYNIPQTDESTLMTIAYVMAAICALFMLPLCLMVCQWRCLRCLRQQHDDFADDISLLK
Assay Remarks: In vitro enzymatic BACE FRET assay
Format: biochemical
Measurement Parameters: read-out: BACE1 Enzyme assay IC50
pIC50: −log10 of the molar value.
Measured Metric: pIC50

1. Cc1cc(OC(F)F)cnc1C(=O)Nc1cc(F)c(Cl)c([C@]2(CF)N=C(N)O[C@H]3C[C@H]32)c1 (racemic) [Example 153]
2. COc1cnc(C(=O)Nc2ccc(Cl)c([C@@]3(C(F)F)N=C(N)O[C@@H]4C[C@@H]43)c2)nc1 [Example 104]
Exercise: Sorting ascending by pIC50, which comes first: 1 or 2 ? Respond using the label that marks the chosen record.
Key: 1
(1: 6.84, 2: 7.06)

1. COc1ccc(C(=O)Nc2cc(C)c(F)c([C@@]3(C(F)F)N=C(N)O[C@@H]4C[C@@H]43)c2)nc1 [Example 304]
2. NC1=N[C@@](c2cc(NC(=O)c3cccc(Cl)n3)ccc2F)(C(F)F)[C@H]2C[C@H]2O1 [Example 286]
Exercise: Between these two entries, 1 and 2 , state which has the higher pIC50. Respond using the label that marks the chosen record.
Key: 1

A. Cc1cc(OC(F)F)cnc1C(=O)Nc1ccc(Cl)c([C@]2(C(F)F)N=C(N)O[C@H]3C[C@H]32)c1 [Example 213]
B. NC1=N[C@](c2cc(-c3nc4ccc(Cl)cc4o3)ccc2F)(C(F)F)[C@@H]2C[C@@H]2O1 [Example 425]
C. N#Cc1cnc2c(Nc3ccc(F)c([C@@]4(C(F)F)N=C(N)O[C@@H]5C[C@@H]54)c3)ncc(F)c2c1 [Example 352]
Exercise: Rank entries according to their pIC50, from the largest number down. Provide the labels, sequenced as the question asks.
Key: C, B, A

* * *

Assay System: Beta Secretase enzyme (BACE) (Homo sapiens (Human))
Assay Remarks: In vitro enzymatic BACE FRET assay
Format: biochemical
Measurement Parameters: read-out: BACE1 Enzyme assay IC50
Measured Metric: IC50 (nM)

# count of solved cases: 10
NC1=N[C@@](c2cc(NC(=O)c3cnc(OCc4ncco4)cn3)ccc2F)(C(F)F)[C@H]2C[C@H]2O1 : 12.4
NC1=N[C@@](c2cc(NC(=O)c3ccc(OCC(F)(F)F)cn3)ccc2F)(C(F)F)[C@H]2C[C@H]2O1 : 104
CC(F)(F)Oc1ccc(C(=O)Nc2ccc(F)c([C@@]3(C(F)F)N=C(N)O[C@@H]4C[C@@H]43)c2)nc1 : 414
Cc1cc(C(F)(F)F)cnc1C(=O)Nc1ccc(Cl)c([C@@]2(CF)N=C(N)O[C@@H]3C[C@@H]32)c1 : 80.6
COc1cnc(C(=O)Nc2ccc(F)c([C@@]3(CF)N=C(N)O[C@@H]4C[C@@H]43)c2)c(Cl)c1 : 34.1
N#Cc1cnc2c(c1)CC[C@@H]2Nc1ccc(F)c([C@@]2(C(F)F)N=C(N)O[C@@H]3C[C@@H]32)c1 (single isomer, unassigned) : 976
NC1=N[C@@](c2cc(NC(=O)c3cnc(OCC#CC4CC4)cn3)ccc2F)(C(F)F)[C@H]2C[C@H]2O1 : 7.6
N#Cc1cnc2c(Nc3ccc(F)c([C@@]4(C(F)F)N=C(N)O[C@@H]5C[C@@H]54)c3)nccc2c1 : 55.8
NC1=N[C@@](c2cc(NC(=O)c3ccc(Br)cn3)ccc2Cl)(C(F)F)[C@H]2C[C@H]2O1 : 9.3
COc1cnc(C(=O)Nc2cc(F)c(F)c([C@@]3(CF)N=C(N)O[C@@H]4C[C@@H]43)c2)cn1 : 125

P. COc1cc(Cl)cnc1C(=O)Nc1cc(C)c(F)c([C@@]2(C(F)F)N=C(N)O[C@@H]3C[C@@H]32)c1
Q. COCc1cc(C#N)cnc1C(=O)Nc1ccc(F)c([C@@]2(C(F)F)N=C(N)O[C@@H]3C[C@@H]32)c1
Exercise: Between these two entries, P and Q , state which has the higher IC50. Respond using the label that marks the chosen record.
Key: P
(P: 130 nM, Q: 11.6 nM)

1. COc1cnc(C(=O)Nc2cc(Cl)c(F)c([C@@]3(CF)N=C(N)O[C@@H]4C[C@@H]43)c2)cn1
2. CS(=O)(=O)c1c(F)cc(NC(=O)c2ccc(Cl)cn2)cc1[C@@]1(CF)N=C(N)O[C@@H]2C[C@@H]21 (racemic)
3. NC1=N[C@@](c2cc(NC(=O)C3CC3)ccc2F)(C(F)F)[C@H]2C[C@H]2O1
4. Cc1cc(C#N)cnc1C(=O)Nc1cc(Cl)c(F)c([C@@]2(CF)N=C(N)O[C@@H]3C[C@@H]32)c1
5. Cc1ccc(NC(=O)c2ccc(Cl)cn2)cc1[C@@]1(C(F)F)N=C(N)O[C@@H]2C[C@@H]21
Exercise: Write the entries in order, lowest recorded IC50 first. Provide the labels, sequenced as the question asks.
Key: 1, 4, 5, 2, 3
(1: 34 nM, 4: 50.6 nM, 5: 90.3 nM, 2: 1040 nM, 3: 5170 nM)

P. NC1=N[C@](CF)(c2nc(NC(=O)c3ccc(Cl)cn3)ccc2F)[C@H]2C[C@H]2O1 (stereo in doubt)
Q. NC1=NC(CF)(c2cc(NC(=O)c3ccc(Br)cn3)cc(F)c2F)[C@@H]2C[C@@H]2O1 (stereo in doubt)
Exercise: Between these two entries, P and Q , state which has the higher IC50. Respond using the label that marks the chosen record.
Key: P
(P: 39300 nM, Q: 6500 nM)

* * *

Assay System: BACE (Homo sapiens (Human))
Sequence (P56817 46-501, species assumed): as the sequence (P56817 46-501) above
Assay Remarks: In vitro BACE cell-based assay (Aβ40 in conditioned medium, sandwich ELISA)
Measured Metric: IC50 (µM)

# count of solved cases: 3
NC1=N[C@@](c2cc(NC(=O)c3ccc(Cl)cn3)ccc2Cl)(C(F)F)[C@H]2C[C@H]2O1 (racemic) [Example 97] : 0.0505
NC1=N[C@@](c2cc(NC(=O)c3ncc(Cl)cn3)ccc2F)(C(F)F)[C@H]2C[C@H]2O1 : 0.0524
NC1=N[C@](CF)(c2cc(NC(=O)c3ccc(F)cn3)ccc2Cl)[C@H]2C[C@H]2O1 : 0.031

P. COc1cnc2c(Nc3ccc(F)c([C@@]4(C(F)F)N=C(N)O[C@@H]5C[C@@H]54)c3)ncnc2c1
Q. C#CCOc1cnc(C(=O)Nc2cnc(F)c([C@@]3(CF)N=C(N)O[C@@H]4C[C@@H]43)c2)cn1
Exercise: Sorting ascending by IC50, which comes first: P or Q ? Respond using the label that marks the chosen record.
Key: Q

I. CC(C)c1cccnc1C(=O)Nc1ccc(F)c([C@@]2(C(F)F)N=C(N)O[C@@H]3C[C@@H]32)c1
II. NC1=N[C@](CF)(c2cc(NC(=O)c3ccc(Cl)cn3)ccc2F)[C@H]2C[C@H]2O1
III. NC1=N[C@@](c2cc(Nc3ncnc4cc(Cl)cnc34)ccc2F)(C(F)F)[C@H]2C[C@H]2O1
Exercise: Write the entries in order, lowest recorded IC50 first. Provide the labels, sequenced as the question asks.
Key: II, III, I
(II: 0.0053 µM, III: 0.0503 µM, I: 2.22 µM)

* * *

Assay System: Cathepsin D (Cat D) (Homo sapiens (Human), UniProt P07339)
Assay Remarks: In vitro enzymatic Cathepsin D (Cat D) FRET assay
Type: biochemical
Measurement Parameters: read-out: CatD IC50
Measured Metric: IC50 (µM)

NC1=N[C@@](c2cc(NC(=O)C3(c4ccc(Cl)cc4)CC3)ccc2F)(C(F)F)[C@H]2C[C@H]2O1 [Example 245] : 447

a. C#CCOc1ccc(C(=O)Nc2ccc(F)c([C@@]3(CF)N=C(N)O[C@@H]4C[C@@H]43)c2)nc1 [Example 205]
b. N#Cc1ccc(C(=O)Nc2ccc(F)c([C@@]3(C(F)F)N=C(N)O[C@@H]4C[C@@H]43)n2)nc1 (racemic) [Example 330]
Exercise: Between these two entries, a and b , state which has the higher IC50. Respond using the label that marks the chosen record.
Key: a

A. Cc1csc(C(=O)Nc2ccc(F)c([C@@]3(C(F)F)N=C(N)O[C@@H]4C[C@@H]43)c2)c1 [Example 176]
B. C#CCOc1cnc(C(=O)Nc2ccc(Cl)c([C@]3(C(F)F)N=C(N)O[C@H]4C[C@H]43)c2)cn1 (racemic) [Example 219]
Exercise: Sorting ascending by IC50, which comes first: A or B ? Respond using the label that marks the chosen record.
Key: B
